- Tested on: NCI-H226
- ASSAY PROTOCOL: NCI tumour cell line growth inhibition, 48 h
Active and inactive are the calls of the source. No stated cut-off is given here; in the data, active = GI50 up to about 1.1 µM and inactive = higher.
PROPERTY LABEL: GI50

Sample answers from the record:
COMPOUND	EXPERIMENTAL TARGET	RESULT
CC1C2CCC3C(O)C2(CC(O)C2(O)C1CC(O)C2(C)C)CC3(C)O (configuration not stated)	NCI-H226	> 100 µM (inactive)
CCOc1ccc(NC(=O)C2=C(C)NC(C)=C(C(=O)Nc3ccc(OCC)cc3)C2c2ccccc2)cc1	NCI-H226	> 100 µM (inactive)
CC(=O)NC1(C)C(C)C2CC1C(C)C2(C)C (configuration not stated)	NCI-H226	> 100 µM (inactive)
CCCCOc1ccc(S(=O)(=O)N/C(N)=N/c2ccc(Cl)cc2)cc1	NCI-H226	19.9 µM (inactive)
O=C1C(Cl)=C(NCCO)C(=O)c2c(O)ccc(O)c21	NCI-H226	> 10 µM (inactive)
O=[N+]([O-])c1ccc2c(c1)Sc1ccccc1N2	NCI-H226	> 100 µM (inactive)
CC(C)=C1CCC(CN2CCCC2)C1=O (configuration not stated)	NCI-H226	> 100 µM (inactive)
CC1(C)CCC[C@@]2(C)C1CCC1(C)C(CCc3ccoc3)/C(=C/OS(=O)(=O)O)CCC12 (some centres not stated)	NCI-H226	54.8 µM (inactive)

Item under review: COC(NC(=O)Nc1ccc(C)cc1)(C(F)(F)F)C(F)(F)F . Reported GI50?
55.8 µM (inactive)

Item under review: CC1=C(C(=O)Nc2ccccc2C)C(/C=C/c2ccccc2)C(C(=O)Nc2ccccc2C)=C(C)N1 . Reported GI50?
> 100 µM (inactive)

Item under review: OC1[C@@H]2[C@@H](O)CCCN2C[C@@H](O)[C@H]1O (some centres not stated) . Reported GI50?
> 100 µM (inactive)

Item under review: CC1=C(O)C(O)=C(C2=C(O)C(O)=C(C)C(=O)C2=O)C(=O)C1=O . Reported GI50?
35.2 µM (inactive)

Item under review: CC(C)N(C(=O)C12C3C4C1C1C2C3C41C(=O)O)C(C)C (configuration not stated) . Reported GI50?
> 100 µM (inactive)

Item under review: CCN1CSC(=S)N(CC)C1 . Reported GI50?
> 100 µM (inactive)

Item under review: CC12CC3(O)OC(O1)C1(COC(=O)c4ccccc4)C3CC21OC1OC(CO)C(O)C(O)C1O (configuration not stated) . Reported GI50?
> 100 µM (inactive)

Item under review: CC(C)(c1ccc(C=O)o1)c1ccc(C(C)(C)c2ccc(C=O)o2)o1 . Reported GI50?
> 100 µM (inactive)

Item under review: CC(=O)NC1CCC(NC(=O)OC(C)(C)C)C(NC(=O)OC(C)(C)C)C1 (configuration not stated) . Reported GI50?
> 100 µM (inactive)

Item under review: COc1ccccc1NS(=O)(=O)c1ccc2ncn(NS(=O)(=O)c3ccc(Cl)cc3)c(=O)c2c1 . Reported GI50?
> 100 µM (inactive)

Item under review: O=C(c1ccc(Cl)c(Cl)c1)N(C(=O)N1CCN(c2ccccc2)CC1)S(=O)(=O)c1ccccc1 . Reported GI50?
24.2 µM (inactive)

Item under review: Cc1nn(C(=O)c2ccc(Cl)cc2)c2c1C(c1ccccc1)SC(=N)N2 (configuration not stated) . Reported GI50?
> 10 µM (inactive)
